System: Plasmodium falciparum
Assay: Calibr Malaria Delayed Death Assay SOP
Assay type: functional, organism-based
Design: scale not given: in the data most compounds retested in dose-response had high values
Details: concentration 4.99e-06 (unit not given; other assays of the set use mol/L)
In all, about 38,000 compounds went through this assay and about 1,200 (3.2%) showed an effect of 50% or more. The median lay at about -58%. This excerpt belongs to a sample that is enriched for strong results.

compound | Percent Effect [%]
CC(C)N(C)CCC(=O)N1CCCC(c2ccc(C(=O)O)cc2)C1 (stereo not drawn) | -175.3
N#CCCN(C(=O)CN1CCCC1C1CCCCC1)c1ccccc1 (stereo not drawn) | 50.3
O=C(c1c(O)cnc2ccccc12)N1CCCSCC1 | -75.93
Cc1nn(C)c(C)c1-c1ccnc(N(C)Cc2noc(C(C)C)n2)n1 | -30.97
Cc1cc(CN2CCC(CNS(=O)(=O)c3c(C)noc3C)CC2)c(C)o1 | 26.64
COc1cccc(CN2CCC3(CC2)CCN(c2ncc(F)cn2)C3)c1.O=C(O)C(F)(F)F | -115
CCCc1cnc(C)nc1N1CCC(Cc2ccc(CO)cc2)C1 (stereo not drawn) | -3.438
CC(C)c1nn(C)c(Cl)c1CNCCn1cccn1 | 8.083
CC1CCC(NC(=O)NCC(C)(C)CCS(C)(=O)=O)CC1 (stereo not drawn) | -129.7
CCS(=O)(=O)N1CCCn2nnc(CNC(C)=O)c2C1 | -63.27
COc1ccccc1CC(C)N(C)CCS(C)(=O)=O (stereo not drawn) | -4.563
CCCC(=O)N1CCC2(CC1)CC(NC(C)=O)c1ccccc1O2 (stereo not drawn) | -58.82
Cc1ccoc1C(=O)N1CCO[C@H]2[C@H](OCc3ccncc3)CC[C@@H]21 | -118.2
CCc1nc2c(c(C)c(C)n2Cc2cccnc2)c(N)c1C | 18.39
Cc1cc(C(=O)N2CCNC(=O)C2)c(C)n1Cc1ccccn1 | -70.27
Cc1nc[nH]c1-c1nccn1CCN1CCCC1=O | -100.3
Cc1ccccc1C1(CNCc2cnc(N3CCOCC3)nc2)CC1 | 50.04
CN1C(Cn2cccn2)C[C@@H]2CN(Cc3nccs3)CC[C@@H]21 (stereo partly drawn) | -108.4
Cc1ccc(C(O)CNC(=O)NCc2c(C)cc(C)[nH]c2=O)cc1 (stereo not drawn) | -76.06
Cc1c(C)n(Cc2ccccn2)c2nc3c(c(N)c12)CCCC3 | 45.51
CN(C)c1ncccc1CNS(=O)(=O)c1cc(F)ccc1F | -126.3
Cc1cc(CN2CCC(CNS(=O)(=O)c3ccc(Br)s3)CC2)c(C)o1 | 91.4
Fc1cnc(N2CCCC3(CN(Cc4ccccc4)CCO3)C2)nc1.O=C(O)C(F)(F)F (stereo not drawn) | -95.68

The values you see were collected from ChEMBL document CHEMBL3988442.
